Reported TGI values for the following molecules.
test system: MDA-N; experiment: NCI tumour cell line growth inhibition, 48 h

Observe how each entry below is paired with its result.
Cc1cc(C)c(C(=O)c2nnc3ccccc3c2N)c(C)c1 : 52.6 µM
CC(=O)Oc1ccc2c(c1)c1c(=O)oc(C)nc1n2Cc1ccccc1 : > 88.1 µM
O=C(c1cccs1)N(C(=O)N1CCN(c2ccccc2)CC1)S(=O)(=O)c1ccccc1 : 41.8 µM
CCC(C)C1NC(=O)C(NC(=O)c2c3[nH]c4c(C(=O)NC5C(=O)NC(C(C)CC)C(=O)N6CCCC6C(=O)N(C)CC(=O)N(C)C(C(C)C)C(=O)OC5C)ccc(C)c4oc-3c(C)c(=O)c2=O)C(C)OC(=O)C(C(C)C)N(C)C(=O)CN(C)C(=O)C2CCCN2C1=O (stereo not drawn) : 33 µM
COc1cc(C(C)=O)cc(C(=O)N(C(C)C)C(C)C)c1[Si](C)(C)C : > 100 µM

Please supply the value of reported TGI for the item "c1ccc([P+](CC[P+](c2ccccc2)(c2ccccc2)c2ccccc2)(c2ccccc2)c2ccccc2)cc1"
> 61.8 µM

Please supply the value of reported TGI for the item "CCC(=O)O[C@H]1CC[C@H]2[C@@H]3CCC4=C/C(=N/OC(=O)c5cccc6c(=O)c7ccccc7[nH]c56)CC[C@]4(C)[C@H]3CC[C@]12C"
> 100 µM

Please supply the value of reported TGI for the item "O=C1c2cccc3cccc(c23)C(=O)N1CCCNCCCNCCCCNCCCNCCCN1C(=O)c2cccc3cccc(c23)C1=O"
6.83 µM

###

tested on: RPMI-8226 leukemia; assay: NCI tumour cell line growth inhibition, 48 h
Reported TGI values for the following molecules.

Observe how each entry below is paired with its result.
COc1c(OC(C)=O)c(OC(C)=O)cc2c1-c1ccc(SC)c(=O)cc1C(NC(C)=O)CC2 (centres undefined) : > 100 µM
CCCCCC(=O)CCCCCCCC(O)CC(=O)OCC (centres undefined) : > 100 µM
CC(=O)O[C@H]1CCC2[C@@H]3CCC4Nc5oncc5C[C@]4(C)C3CC[C@@]21C (some centres undefined) : > 10 µM
COC(=O)[C@H](Cc1c[nH]c2ccccc12)NC(=O)c1ccc(CNC(=O)/C(C)=C/c2ccccc2)cc1 : > 100 µM
Ic1cccc(/C=C/CN2CCN(CCOC(c3ccccc3)c3ccccc3)CC2)c1 : 14.3 µM
CC1=C(C(=O)Nc2ccc(Cl)c(Cl)c2)C(c2cccc(Oc3ccccc3)c2)NC(=O)N1 (centres undefined) : > 50 µM

Please supply the value of reported TGI for the item "N#Cc1c(N/N=C/c2ccc(Cl)cc2Cl)nc(N)nc1N1CCCC1"
> 100 µM

Please supply the value of reported TGI for the item "Cc1cc(C)c(NC(=O)c2sc3nc4c(cc3c2N)CN(Cc2ccccc2)CC4)c(C)c1"
35.1 µM

Please supply the value of reported TGI for the item COC1(OC)CC2C(=O)N(Cc3ccccc3)C1C=C2S(=O)(=O)c1ccccc1 (centres undefined)
63.1 µM

###

tested on: COLO 205 colon; test: NCI tumour cell line growth inhibition, 48 h
quantity.name: TGI

Observe how each entry below is paired with its result.
O=C(O)c1ccc(OCc2ccccc2)c(Cl)c1 : > 100 µM
COC1=CC2C(c3cc4ccccc4n3S(=O)(=O)c3ccccc3)CC1CN2C(=O)OCc1ccccc1 (stereo unspecified) : 31.2 µM
N#CC(OC1OC(COC2OC(CO)C(O)C(O)C2O)C(O)C(O)C1O)c1ccccc1 (stereo unspecified) : > 225 µM
COc1ncc(-c2ccc3ncnc(Nc4cccc(Cl)c4)c3c2)cc1NS(=O)(=O)C1CC1 : > 100 µM
O=P1(c2ccccc2)CCCCC1 : > 100 µM
Cc1cn(C2CC(O)C(CO[Si](C)(C)C(C)(C)C)OC2OC(C)C)c(=O)[nH]c1=O (stereo unspecified) : 48.9 µM
Cc1nn(C(=O)Cc2ccccc2)c2c1C(c1ccc(Cl)cc1)SC(N)=N2 (stereo unspecified) : > 100 µM
CC(C)N(C(=O)C12C3C4C1(I)C1C2C3(I)C41C(=O)N(C(C)C)C(C)C)C(C)C (stereo unspecified) : > 100 µM
CN(C)CCNC(=O)c1ccc2nc3c(nc2c1)C(=O)c1ccccc1-3 : > 100 µM
S=c1[nH]c(=S)c2nnn(-c3ccccc3)c2[nH]1 : > 100 µM

Please supply the value of reported TGI for the item "COc1ccc(-c2coc3c4c(ccc3c2=O)OCO4)cc1OC"
> 100 µM
